Listing: protein stability index of selected variants
B1: PDS5B (parent)
chain: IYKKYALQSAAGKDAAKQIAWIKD

- Variants of: B1
- PROCEDURE_DETAILS: protein stability index of a GFP-peptide fusion (GPS, HEK-293T) (PSI 1-6); higher = more stable;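 also: lentivirally expressed fusions sorted by FACS into six bins by GFP to DsRed ratio, PSI derived from sequencing read proportions per bin multiplied by bin number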
- DETAILS: c terminus: a fixed tail appended
Enter the number alone.

change=G12P metric="protein stability index" value_measured=2.74
change=K17D metric="protein stability index" value_measured=3.27
change=K3M metric="protein stability index" value_measured=1.72
change=Q18I metric="protein stability index" value_measured=2.4
change=K3T metric="protein stability index" value_measured=2.15

Input line: Quick check: protein stability index of A10L ?
Output line: 2.32

Input line: Quick check: protein stability index of K23T ?
Output line: 2.18

Input line: Quick check: protein stability index of Q8M ?
Output line: 2.06

Input line: Quick check: protein stability index of L7P ?
Output line: 2.92

Input line: Quick check: protein stability index of K4G ?
Output line: 2.61
